Please provide measured growth for the entries that follow.
# Test system: OVCAR-3 ovarian
# assayInfo: NCI-60 one-dose screen, 48 h (100 = growth as untreated, 0 = no growth, -100 = all killed)
# details: 10 µM unless noted
About 83,000 compounds went through this panel and 20% of them were active in at least one assay; those are over-represented in the sample as a whole. The source made the active and inactive calls. The calls were made as follows: active = growth percent below 10; inactive = the rest.

COc1ccc(/C=C(/c2ccccc2)[N+](=O)[O-])c(OC)c1; -80.6% (active)
COC(=O)CCC/C=C\C[C@H]1C=CC(=O)/C1=C/C[C@@H](O)C/C=C\CC(F)(F)F; -3.96% (active)
O=C1/C=C/[C@@H](O)[C@@H]2C[C@@H](O)C[C@H]2/C=C/CCC[C@H](CCO)O1; -46.9% (active)

// batch mode: one growth value per listed entry
1. Cc1cccc[n+]1C1c2ccccc2-c2ccccc21
2. COc1ccc(/C=C2\CN(C(=O)C(Cl)Cl)C/C(=C\c3ccc(OC)cc3)C2=O)cc1

Result:
98.5% (inactive)
-75.3% (active)

// batch mode: one growth value per listed entry
1. C#Cc1cccc(Nc2nc(C)nc3cc(NC(=O)CCl)ccc23)c1
2. CCN(CC)c1ccc(/C=N/NC(=O)Cc2ccc(Nc3ccnc(C(F)(F)F)c3)cc2)c(O)c1
3. CC(=O)c1ccc(Nc2nccc(-c3ccc4ccccc4c3)n2)cc1
4. Cn1ccc(=O)nc1
5. N#Cc1c(-c2ccccc2)nc(SCc2nnc(-c3ccc(Cl)cc3)o2)[nH]c1=O

Result:
["-88.2% (active)", "32.4% (inactive)", "99.3% (inactive)", "115% (inactive)", "103% (inactive)"]

// batch mode: one growth value per listed entry
1. Cc1ccc2nc(NC(=O)CSc3nc(-c4ccccc4)c(C#N)c4nnnn34)sc2c1
2. CC(=O)/C(=C/c1ccc([N+](=O)[O-])cc1)C(=O)c1ccccc1

Result:
1. 122% (inactive)
2. 96.5% (inactive)

// batch mode: one growth value per listed entry
1. CCOC(=O)c1c(C)nc2ccccc2c1/C=C/c1cccs1
2. CN1CCN(CC(=O)Nc2ccc3ncnc(Nc4ccc(Oc5cccc(C(F)(F)F)c5)c(Cl)c4)c3c2)CC1

Result:
1. 82.7% (inactive)
2. 4.81% (active)

// batch mode: one growth value per listed entry
1. Cc1ccc(C)c2c(C)c(C(=O)Nc3cccc(-n4cccn4)c3)oc12
2. NC(N)=NS(=O)(=O)c1ccc(NC2=C(I)C(=O)c3ncccc3C2=O)cc1
3. O=C1/C(=C2\SC(=S)N(C3CC3)C2=O)SC(=S)N1C1CC1

Result:
82% [50 µM] (inactive)
95.3% (inactive)
107% (inactive)

// batch mode: one growth value per listed entry
1. COc1ccc2nc(Cl)c(/C=C3\CC(c4ccccc4)=NN(c4ccccc4)C3=O)cc2c1
2. CCN(CC)CCCN1C(=O)c2c(c(C)c3c(oc4ccc(OC)cc43)c2C)C1=O
3. Cc1nc2sc(C(=O)Nc3cccc(Br)c3C)c(N)c2cc1C(O)c1ccccc1 (stereo not drawn)
4. CO[C@H](C(=O)[C@@H](O)[C@@H](C)O)[C@@H]1Cc2cc3cc(O[C@H]4C[C@@H](O[C@H]5C[C@@H](O)[C@H](O)C(C)O5)[C@H](O)C(C)(O)O4)cc(O)c3c(O)c2C(=O)[C@H]1O[C@H]1C[C@@H](O[C@H]2C[C@@H](O[C@H]3C[C@@H](OC)[C@H](O)C(C)O3)[C@@H](O)C(C)O2)[C@H](O)C(C)O1 (stereo partly drawn)
5. O=C(NNC(=O)c1nc2cc(F)ccc2n2cccc12)c1cnccn1

Result:
["74.4% (inactive)", "108% (inactive)", "-2.75% (active)", "21.7% (inactive)", "30% (inactive)"]

// batch mode: one growth value per listed entry
1. COC(=O)/C=C1/SC(=Nc2ccc([N+](=O)[O-])cc2)N(CCc2c[nH]c3ccc(O)cc23)C1=O
2. CN(CCC(=O)c1ccccc1)CCC(=O)c1ccccc1
3. CN1CCN(c2ccc(NC(=O)c3cncnc3Nc3ccc(OCc4cccc(F)c4)c(Cl)c3)cc2)CC1
4. CC(C)CCN(CCC(C)C)CC(O)c1cc2c(c3ccccc13)CCCC2 (stereo not drawn)
5. CCCCNc1nnc2n(Cc3ccccc3)c(=O)c3c4c(sc3n12)CCCC4
6. CN1CCN(CCOc2ccc(-c3cnc4c(-c5ccc(F)cc5)cnn4c3)cc2)CC1
7. COc1ccc(/C=C/c2c(C(=O)/C=C/c3ccccc3)c(C)nc3ccccc23)cc1

Result:
["50.9% (inactive)", "113% (inactive)", "81.7% (inactive)", "85% (inactive)", "49.2% (inactive)", "28.4% (inactive)", "-22.4% (active)"]

// batch mode: one growth value per listed entry
1. CCOC(=O)c1c(C)nc2c(c1N)/C(=C/c1ccc(OC)cc1)C(=O)N2Cc1ccccc1
2. COc1ccc2c(c1)CCc1[nH]nc(-c3cc(OC)c(OC)c(OC)c3)c1-2

Result:
1. 41.7% (inactive)
2. 1.01% (active)

----------
# System: U251 CNS
# assayInfo: NCI-60 one-dose screen, 48 h
# details: 10 µM unless noted
# Description: Growth inhibition of the U251 human tumor cell line is measured as a screen for anti-cancer activity. Cells are grown in 96 well plates and exposed to the test compound for 48 hours. Compounds are tested at a single concentration, which is 10^-5 M for most compounds. The reported endpoint is percent growth (GI% or GIPRCNT), where numbers from 0 - 100% represent growth inhibition, and numbers from -100% - 0 represent cell death. For example, a value of 40 represents 60% growth inhibition. […]
Compounds without any hit were thinned out: in the full panel of roughly 83,000, 20% have a hit. The source made the active and inactive calls. Rule for the calls: active = growth percent below 10; inactive = the rest.
Log the outcome using a class from label 1 for active, label 0 for inactive

Some solved entries appear below for comparison.
Cc1ccc(/C=C/C(=O)c2cccc(OCCCOc3cccc(C(=O)/C=C/c4ccc(C)cc4)c3)c2)cc1; label 0
O=C(N/N=C\c1cccc([N+](=O)[O-])c1)N/N=C/c1cccc([N+](=O)[O-])c1; label 0
COC(=O)c1c2c(c(C)[n+]([O-])c1C)C(=O)C(NCc1ccc(OC)cc1)=CC2=O; label 1
CC1(C)NCCC[C@]2(C)[C@H]3CC[C@H]4[C@H]5[C@H](C(=O)/C=C/c6cccnc6)CCC[C@]5(CO)CC[C@@]4(C)[C@]3(C)CC[C@@H]12; label 0
CC1=CC(c2ccco2)=C2C(N)=NNC2N1 (stereo not drawn); label 0

Next, consider the following compound.
Request: # outcome recorded in this test, key = COc1cccc(C(=O)NNc2nc(Cl)nc(Cl)n2)c1
Result: label 0

----------
Please provide measured growth for the entries that follow.
# Tested on: PC-3 prostate
# assayInfo: NCI-60 one-dose screen, 48 h (100 = growth as untreated, 0 = no growth, -100 = all killed)
# details: 10 µM unless noted
About 83,000 compounds went through this panel and 20% of them were active in at least one assay; those are over-represented in the sample as a whole.
Give bare numbers, in %.

Examples with their reported growth follow.
O=c1c2c3c(sc2n2c(-c4cc(-c5ccccc5)no4)nnc2n1Cc1ccccc1)CCCC3; 71.8
O=C(NCc1cccc(CNC(=O)Nc2nc3ccccc3[nH]2)c1)Nc1nc2ccccc2[nH]1; -59.8
CCCn1nc(C(=O)N(C)Cc2ccccc2)c2c1CCC(N1CCc3ccccc31)C2 (stereo not given); 77.2

// batch mode: one growth value per listed entry
1. COc1ccc(C(O)c2cc3c(N)c(C(=O)Nc4cccc(Cl)c4C)sc3nc2C)cc1 (stereo not given)
2. CC1CCN(C(=O)CCCl)c2ccccc21 (stereo not given)
3. CC(=O)c1ccc(Nc2nccc(-c3ccc4ccccc4c3)n2)cc1
4. COc1ccc(C(=S)N2CCN(c3ccc(Cl)cc3)CC2)cc1
5. CCCC(CC)(C(=O)Nc1ccc2nc(C)cc(N)c2c1)C(=O)Nc1ccc2nc(C)cc(N)c2c1

Result:
1. 16.7
2. 103
3. 91.5
4. 103
5. 95.8

// batch mode: one growth value per listed entry
1. COc1ccc(/C=C/c2ccc3ccccc3n2)c(OC)c1
2. N#Cc1cncc(-c2ccc3ncnc(Nc4cccc(Cl)c4)c3c2)c1

Result:
1: 66.1; 2: 63.5

----------
# Tested on: 786-0 renal
# assayInfo: NCI-60 one-dose screen, 48 h (100 = growth as untreated, 0 = no growth, -100 = all killed)
# details: 10 µM unless noted
About 83,000 compounds went through this panel and 20% of them were active in at least one assay; those are over-represented in the sample as a whole.
Quick rule: growth of at least 70% means true (1), below that means false (0).

N#CC1CCc2c(c(-c3ccc4nc(N)sc4c3)nc3ccc4[nH]ncc4c23)C1 (stereo not given); false (0)
COc1cccc(Nc2ncnc3cc(NC(=O)CCl)ccc23)c1; false (0)
Cn1cc(-c2csc(-c3cn(CCCN4CCOCC4)c4ccccc34)n2)c2cccnc21; true (1)

Request: Could you verify whether the entry CC(C)(C)n1cc(-c2ccnc(NCCCNS(=O)(=O)c3ccc(C(F)(F)F)cc3)c2)c(-c2cccc(F)c2)n1 shows growth of no less than 70%?
Result: true (1)

Request: Could you verify whether the entry CNC1=CC(=O)c2c(C(=O)OC)c(C)[n+]([O-])c(C)c2C1=O shows growth of no less than 70%?
Result: true (1)
